Every entry's value here was drawn from patent US20240174680A1.

Would you mind telling me the reported pIC50 of each entry?
Molecular target: CDK2/Cyclin E1 (Homo sapiens, UniProt P24941)
Experiment: CDK2/Cyclin E1 Caliper LabChip EZ Reader mobility shift assay
Type: biochemical
Design: purchased Eurofins 14-475
Conditions: read-out: Caliper Assay (CDK2/CCNE1): IC50
pIC50: −log10 of the molar value.

[
  {
    "Compound": "C[C@@H](OCc1ccccc1)[C@H](NC(=O)[C@@H]1CN(C(=O)c2cnn(Cc3ccccc3)c2)CC12CN(C(=O)[C@H]1CC1(C)C)C2)C(=O)N(C)C [I-409]",
    "System under test": "CDK2/Cyclin E1 (Homo sapiens, UniProt P24941)",
    "pIC50": "≥ 8.00"
  },
  {
    "Compound": "CNC(=O)[C@@H](NC(=O)[C@H]1CN(C(=O)c2cnn(Cc3ccc(F)cc3)c2)CC12CN(C(=O)[C@H]1CC1(C)C)C2)[C@@H](C)OCc1ccc(F)cc1 [I-136B]",
    "System under test": "CDK2/Cyclin E1 (Homo sapiens, UniProt P24941)",
    "pIC50": "6.00 to 7.00"
  },
  {
    "Compound": "COCC1(NC(=O)[C@H]2CN(C(=O)c3cnn(Cc4ccccc4)c3)CC23CN(C(=O)[C@H]2CC2(C)C)C3)CC1 [I-250]",
    "System under test": "CDK2/Cyclin E1 (Homo sapiens, UniProt P24941)",
    "pIC50": "< 5.00"
  },
  {
    "Compound": "CC1(C)C[C@@H]1C(=O)N1CC2(CN(C(=O)c3cncs3)C[C@H]2C(=O)NC(c2cccc(C3CCCCC3)n2)C2CCCO2)C1 (stereo partly shown) [I-495]",
    "System under test": "CDK2/Cyclin E1 (Homo sapiens, UniProt P24941)",
    "pIC50": "7.00 to 8.00"
  },
  {
    "Compound": "CNC(=O)[C@@H](NC(=O)[C@@H]1CN(C(=O)c2sc(C(C)C)nc2C)CC12CN(C(=O)[C@H]1CC1(C)C)C2)[C@@H](C)OCC1CCCCC1 [I-227A]",
    "System under test": "CDK2/Cyclin E1 (Homo sapiens, UniProt P24941)",
    "pIC50": "6.00 to 7.00"
  },
  {
    "Compound": "C[C@@H](OCC1CCCCC1)[C@H](NC(=O)C1CN(C(=O)c2cnn(Cc3ccccc3)c2)CC12CN(C(=O)[C@H]1CC1(C)C)C2)C(=O)N1CC2(CCC2)C1 (stereo partly shown) [I-107]",
    "System under test": "CDK2/Cyclin E1 (Homo sapiens, UniProt P24941)",
    "pIC50": "≥ 8.00"
  },
  {
    "Compound": "CNC(=O)[C@@H](NC(=O)[C@@H]1CN(C(=O)c2cnn(Cc3ccccc3)c2)CC12CN(C(=O)OC(C)(C)C)C2)[C@@H](C)OCc1ccccc1 [I-3A]",
    "System under test": "CDK2/Cyclin E1 (Homo sapiens, UniProt P24941)",
    "pIC50": "6.00 to 7.00"
  },
  {
    "Compound": "Cc1nc(C)c(C(=O)N2C[C@@H](C(=O)N[C@H](C(=O)N3CCC4(CC3)COC4)[C@@H](C)OCC34CCC(CC3)OC4)C3(C2)CN(C(=O)[C@H]2CC2(C)C)C3)s1 [I-343]",
    "System under test": "CDK2/Cyclin E1 (Homo sapiens, UniProt P24941)",
    "pIC50": "≥ 8.00"
  },
  {
    "Compound": "Cc1cc(C(=O)N2CC(C(=O)N[C@H](C(=O)N3CCCCC3)[C@@H](C)OCC3CCCCC3)C3(C2)CN(C(=O)[C@H]2CC2(C)C)C3)[nH]n1 (stereo partly shown) [I-264]",
    "System under test": "CDK2/Cyclin E1 (Homo sapiens, UniProt P24941)",
    "pIC50": "5.00 to 6.00"
  },
  {
    "Compound": "CNC(=O)[C@@H](NC(=O)[C@@H]1CN(C(=O)c2cnn(Cc3ccc(F)cc3)c2)CC12CN(C(=O)[C@H]1CC1(C)C)C2)[C@@H](C)OCc1ccc(F)cc1 [I-136A]",
    "System under test": "CDK2/Cyclin E1 (Homo sapiens, UniProt P24941)",
    "pIC50": "7.00 to 8.00"
  }
]

For the 3 compounds below, give their pIC50 values.
1. COC(=O)[C@@H](CO)NC(=O)[C@@H]1CN(C(=O)c2cnn(Cc3ccccc3)c2)CC12CN(C(=O)[C@H]1CC1(C)C)C2 [I-187A]
2. CNC(=O)[C@@H](NC(=O)[C@@H]1CN(C(=O)c2cncs2)CC12CN(C(=O)[C@H]1CC1(C)C)C2)[C@@H](C)OCC1CC2CCC1C2 (stereo partly shown) [I-465]
3. CNC(=O)[C@@H](NC(=O)[C@@H]1CN(C(=O)c2cnn(Cc3ccccc3)c2)CC12CN(C(=O)[C@H]1CC1(C)C)C2)[C@@H](C)OCC1CCC(C(F)(F)F)CC1 (stereo partly shown) [I-141A]

A:
["< 5.00", "≥ 8.00", "7.00 to 8.00"]
